- Study Target: T1, hPRLR.mFc (soluble dimeric human PRLR) (human)
- T1 construct: dimeric PRLR construct
- T1 chain: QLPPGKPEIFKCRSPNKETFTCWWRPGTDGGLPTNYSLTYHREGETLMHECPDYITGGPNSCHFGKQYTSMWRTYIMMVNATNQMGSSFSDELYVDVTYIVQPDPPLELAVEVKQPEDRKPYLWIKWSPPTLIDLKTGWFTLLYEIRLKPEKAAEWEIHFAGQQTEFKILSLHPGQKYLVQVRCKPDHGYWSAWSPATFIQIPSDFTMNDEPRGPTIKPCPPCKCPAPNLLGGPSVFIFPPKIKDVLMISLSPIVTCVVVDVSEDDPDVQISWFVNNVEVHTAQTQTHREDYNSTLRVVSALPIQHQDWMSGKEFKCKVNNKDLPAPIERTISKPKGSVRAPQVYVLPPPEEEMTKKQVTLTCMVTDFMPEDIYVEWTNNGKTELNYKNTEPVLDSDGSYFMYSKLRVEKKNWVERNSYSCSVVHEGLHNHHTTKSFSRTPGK
- Measurement Protocol: SPR Biacore, 25 C, mAb capture
Consider the following binders and their measured T½ readings.
Measure: T½ (h)

{"columns": ["Binder", "Unit Abbrev", "Readout Value"],
 "data": [
  ["H1H6781P (antibody, human IgG1, V domains shown, Human IgG1 Fc (H1H)) VH: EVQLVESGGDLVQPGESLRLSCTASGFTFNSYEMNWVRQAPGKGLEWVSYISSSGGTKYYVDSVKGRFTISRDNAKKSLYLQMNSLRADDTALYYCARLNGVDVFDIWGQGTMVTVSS VL: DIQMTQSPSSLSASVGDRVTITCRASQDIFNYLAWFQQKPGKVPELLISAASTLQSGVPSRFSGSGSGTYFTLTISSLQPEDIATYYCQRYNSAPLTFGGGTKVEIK", "h", 3.18],
  ["H1H6792P (antibody, human IgG1, V domains shown, Human IgG1 Fc (H1H)) VH: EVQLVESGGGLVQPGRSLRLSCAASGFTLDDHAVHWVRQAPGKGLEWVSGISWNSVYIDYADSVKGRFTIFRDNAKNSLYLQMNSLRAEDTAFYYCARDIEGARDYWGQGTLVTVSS VL: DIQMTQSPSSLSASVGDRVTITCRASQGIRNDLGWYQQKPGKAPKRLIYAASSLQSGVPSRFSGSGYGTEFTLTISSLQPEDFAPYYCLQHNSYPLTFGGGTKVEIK", "h", 2.03],
  ["H1H6804P (antibody, human IgG1, V domains shown, Human IgG1 Fc (H1H)) VH: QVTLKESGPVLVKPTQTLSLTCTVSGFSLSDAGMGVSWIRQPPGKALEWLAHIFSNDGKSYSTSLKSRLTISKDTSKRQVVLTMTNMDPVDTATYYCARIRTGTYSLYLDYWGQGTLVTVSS VL: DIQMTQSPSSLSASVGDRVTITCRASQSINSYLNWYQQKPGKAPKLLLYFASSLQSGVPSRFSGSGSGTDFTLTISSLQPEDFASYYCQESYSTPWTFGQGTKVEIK", "h", 2.22],
  ["H1H6765P (antibody, human IgG1, V domains shown, Human IgG1 Fc (H1H)) VH: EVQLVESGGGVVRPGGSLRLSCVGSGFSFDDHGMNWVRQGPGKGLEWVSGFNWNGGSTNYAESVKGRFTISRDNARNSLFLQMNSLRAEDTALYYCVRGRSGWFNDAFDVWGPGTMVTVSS VL: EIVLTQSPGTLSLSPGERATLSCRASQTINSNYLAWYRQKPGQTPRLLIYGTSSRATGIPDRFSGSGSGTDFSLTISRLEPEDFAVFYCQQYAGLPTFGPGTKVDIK", "h", 5.65],
  ["H1H6790P (antibody, human IgG1, V domains shown, Human IgG1 Fc (H1H)) VH: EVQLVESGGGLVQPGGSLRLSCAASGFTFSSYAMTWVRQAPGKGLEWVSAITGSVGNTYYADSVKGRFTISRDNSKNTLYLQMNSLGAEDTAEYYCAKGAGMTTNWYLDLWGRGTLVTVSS VL: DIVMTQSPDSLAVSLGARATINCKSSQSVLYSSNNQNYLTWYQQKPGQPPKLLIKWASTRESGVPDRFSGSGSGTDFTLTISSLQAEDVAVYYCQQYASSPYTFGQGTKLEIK", "h", 1.85]
]}
